Read-out: Interferon-gamma inducible Protein 10 (IP10), CXCL10 (gene 3627)
Test: BSK_BE3C_IP10: BioMAP Diversity Plus: BE3C Assay for Interferon-gamma inducible Protein 10 (IP10) Biomarker Activity (AID 2283034)
Conditions: primary human bronchial epithelial cells; actives raise or lower the signal
Experimental: BSK_BE3C is a cell-based, multiplexed-readout assay that uses bronchial epithelial cell, a human lung primary cell, with measurements taken at 24 hours after chemical dosing in a 96-well plate.BSK_BE3C_IP10 is an assay component measured in the BSK_BE3C assay. It measures IP-10 antibody related to regulation of gene expression using ELISA technology.Data from the assay component BSK_BE3C_IP10 was analyzed into 1 assay endpoint. […]
Calls of active or inactive are those of the source. The calls were made as follows: active = hit-call score of the fitted dose curve at least 0.9, where 1 is the maximum; inactive = score below 0.9.
value.kind: AC50

These solved cases illustrate the format of a correct answer.
molecule	value.kind	value.reported
CC(=O)c1ccc(C)cc1	AC50	inactive
CCCO[Si](OCCC)(OCCC)OCCC	AC50	inactive
C=C(C)C(N)=O	AC50	inactive
CC(C)CCCC(C)(C)O	AC50	inactive
C=CC(=O)OCC(CO)(COC(=O)C=C)COC(=O)C=C	AC50	0.818 µM (active)

Prompt line: Please give the measured AC50 for this molecule: CC1=CC(C)C(C=O)C(C)C1 (stereo not drawn) (tested in a mixture with another compound)
Response line: inactive

Prompt line: Please give the measured AC50 for this molecule: CCCCCCCCCC(=O)OCC
Response line: 20 µM (active)

Prompt line: Please give the measured AC50 for this molecule: CC(=O)OC(C)(C)C1CC=C(C)CC1 (stereo not drawn)
Response line: 31.5 µM (active)
